// Ki lookup, one value per entry
tested on: Platelet-activating factor receptor (Cavia porcellus, UniProt P21556)
Sequence (P21556 whole entry): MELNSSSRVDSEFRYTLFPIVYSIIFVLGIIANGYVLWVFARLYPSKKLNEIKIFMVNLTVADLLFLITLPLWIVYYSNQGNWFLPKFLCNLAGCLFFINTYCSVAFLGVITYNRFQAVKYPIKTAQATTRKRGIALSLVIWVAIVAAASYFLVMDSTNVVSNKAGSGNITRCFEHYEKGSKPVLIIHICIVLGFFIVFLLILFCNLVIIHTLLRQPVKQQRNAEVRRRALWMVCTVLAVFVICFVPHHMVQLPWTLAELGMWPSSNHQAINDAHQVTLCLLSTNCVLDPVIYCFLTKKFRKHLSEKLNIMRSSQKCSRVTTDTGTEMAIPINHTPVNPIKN
Please reply with the bare figure in nM and do not write the unit itself.

Reference set (10 entries):
compound | unit annotation | Ki
CN[C@H]1C2OC(=O)C34OC5OC(=O)[C@H](O)C5([C@H]1C(C)(C)C)C23[C@@H](O)C1OC(=O)[C@@H](C)[C@@]14O (some centres not stated) | nM | 610
C[C@@H]1C(=O)OC2[C@H](O)C34C5OC(=O)C3(OC3OC(=O)[C@H](OCc6ccccc6)C34[C@@H](C(C)(C)C)[C@H]5O)[C@]21O (some centres not stated) | nM | 600
CC(=O)O[C@H]1C2OC(=O)C34OC5OC(=O)[C@H](O)C5([C@H]1C(C)(C)C)C23[C@@H](O)C1OC(=O)[C@@H](C)[C@@]14O (some centres not stated) | nM | 7840
C[C@@H]1C(=O)OC2[C@H](O)C34C5OC(=O)C3(OC3OC(=O)[C@H](O)C34[C@@H](C(C)(C)C)[C@H]5Cl)[C@]21O (some centres not stated) | nM | 110
C[C@@H]1C(=O)O[C@H]2[C@H](O)[C@@]34[C@H]5CC(C(C)(C)C)[C@]36[C@@H](OC(=O)[C@@H]6O)O[C@@]4(C(=O)O5)[C@@]12O (single isomer, unassigned) [GINKOLIDE B] | nM | 880
C[C@@H]1C(=O)O[C@H]2[C@H](O)[C@]34[C@@H]5OC(=O)[C@]3(OC3OC(=O)[C@H](O)C34C(C(C)(C)C)[C@@H]5O)[C@@]12O (single isomer, unassigned) | nM | 12600
C[C@@H]1C(=O)OC2[C@H](O)C34C5OC(=O)C3(OC3OC(=O)[C@H](O)C34[C@@H](C(C)(C)C)[C@H]5N)[C@]21O (some centres not stated) | nM | 8640
C[C@@H]1C(=O)O[C@H]2[C@H](O)[C@]34[C@@H]5OC(=O)[C@]3(OC3OC(=O)[C@H](O)C34C(C(C)(C)C)[C@H]5O)[C@@]12O (single isomer, unassigned) | nM | 4260
C[C@@H]1C(=O)OC2[C@H](O)C34C5OC(=O)C3(OC3OC(=O)[C@H](O)C34[C@@H](C(C)(C)C)[C@H]5F)[C@]21O (some centres not stated) | nM | 990
C[C@@H]1C(=O)OC2[C@H](O)C34C5OC(=O)C3(OC3OC(=O)[C@H](OCc6ccccc6)C34[C@@H](C(C)(C)C)[C@H]5F)[C@]21O (some centres not stated) | nM | 100

Hello, I am looking for reported Ki with Platelet-activating factor receptor (Cavia porcellus, UniProt P21556) for C[C@@H]1C(=O)OC2[C@H](O)C34C5OC(=O)C3(OC3OC(=O)[C@H](O)C34[C@@H](C(C)(C)C)[C@H]5N=[N+]=[N-])[C@]21O (some centres not stated) . Could you help?
550

What value of Ki on Platelet-activating factor receptor (Cavia porcellus, UniProt P21556) does CCN[C@H]1C2OC(=O)C34OC5OC(=O)[C@H](O)C5([C@H]1C(C)(C)C)C23[C@@H](O)C1OC(=O)[C@@H](C)[C@@]14O (some centres not stated) have?
1620
